protocolText: Cytotoxicity against mouse bone marrow cells after 72 hrs by XTT assay
Type: cell-based, Bone marrow cell
experimentalContext: read-out: LD50
measure: CC50 at 72 h

>>> recordedvalue("C=C(COC(=O)c1c(C(F)(F)F)cccc1C(F)(F)F)C(=O)N[C@@H](CC(C)C)C(=O)NCC(=O)OCC")
"> 12.5 µM"

For the next question, use this molecule.
Asked: For CCC(C)SSc1ncc[nH]1 (configuration not stated) [PX-12] , what is its reported CC50 at 72 h?
Given back: > 12.5 µM

====

Please respond with reported CC50 for every item in the list.
Tested on: EMT6
protocolText: Cytotoxicity against mouse EMT6 cells after 72 hrs by crystal violet staining
Assay type: functional
experimentalContext: EMT6, 72 h, read-out: LD50 (the source's name)

Sample records with CC50:
>>> recordedvalue("C=C(COC(=O)c1c(C(F)(F)F)cccc1C(F)(F)F)C(=O)OC")
"> 25 µM"
>>> recordedvalue("C=C(C)C(=O)N(Cc1ccccc1)[C@@H](CC(C)C)C(=O)NCC(=O)OCc1ccccc1")
"> 50 µM"
>>> recordedvalue("COC(=O)C(CBr)CBr")
"> 50 µM"

Asked: For EMT6, provide CC50 of C=C(CI)C(=O)N(Cc1ccccc1)[C@@H](CC(C)C)C(=O)NCC(=O)OCc1ccccc1 please.
Given back: > 50 µM
